Ref: patent US20230271949A1

test_target: GLP-1R (Homo sapiens)
test_method_notes: GLP-1R agonist cAMP stimulation assay (HTRF cAMP)
Format: cell-based
particulars: HEK293 cell line expressing GLP-1 target; HTRF cAMP agonist mode, 30 min at RT
Experimental: cAMP Detection Kit, Cisbio (Cat #62AM4PEJ) The cell line was constructed by WuXi. 2. Methods • a) The compound source plate preparation: • The reference 7-37 was diluted from 500 nM, 4-fold, 10 points in DMSO using Bravo. […]
attribute_measured: EC50

molecule	test_target	EC50
Cc1cc(C(=O)Nc2ccc3c(c2)nc(CN2CC=C(c4cccc(OCc5ccc(Cl)cc5F)n4)CC2)n3C[C@@H]2CCO2)cc2cn[nH]c12 [Compound 199]	GLP-1R (Homo sapiens)	0.47 nM
O=C(Nc1cc(C(F)(F)F)c2[nH]ncc2c1)c1ccc2c(c1)nc(CN1CCC(c3cccc(OCc4ccc(Cl)cc4F)n3)CC1)n2C[C@@H]1CCO1 [Compound 108]	GLP-1R (Homo sapiens)	2.39 nM

Task item: So what does the record say about EC50 for COCCn1c(Cc2ccc(-c3cccc(OCc4ccc(C#N)cc4F)n3)cc2-c2nccn2C)nc2cc(C(=O)NCCc3ccc(S(N)(=O)=O)cc3)ccc21 [Compound 29] ?
Reply: > 10000 nM

Task item: So what does the record say about EC50 for COCCn1c(CN2CCC(c3cccc(OCc4ccc(Cl)cc4F)n3)CC2)nc2cc(C(=O)NCCc3nc4ccccc4[nH]3)ccc21 [Compound 22] ?
Reply: 1370 nM

Task item: So what does the record say about EC50 for O=C(NCC(=O)N1CCC[C@H]1C(=O)O)c1ccc2c(c1)nc(CN1CCC(c3cccc(OCc4ccc(Cl)cc4F)n3)CC1)n2C[C@@H]1CCO1 [Compound 60] ?
Reply: 22.3 nM

Task item: So what does the record say about EC50 for O=C(Nc1cc(C(F)(F)F)c2[nH]nc(C3CC3)c2c1)c1ccc2c(c1)nc(CN1CCC(c3cccc(OCc4ccc(Cl)cc4F)n3)CC1)n2C[C@@H]1CCO1 [Compound 113] ?
Reply: 4.38 nM

* * *

# Lookup of reported EC50 keyed by entry
test_target: GLP-1R (Homo sapiens)
test_method_notes: GLP-1R agonist cAMP stimulation assay (HTRF cAMP)
particulars: HEK293 cell line expressing GLP-1 target; HTRF cAMP agonist mode, 30 min at RT
Field: numeric (pM). Do not append units.

O=C(NC1=Nc2nccn2C1)c1ccc2c(c1)nc(CN1CC=C(c3cccc(OCc4ccc(Cl)cc4F)n3)CC1)n2C[C@@H]1CCO1 104000
Cc1n[nH]c2ccc(NC(=O)c3ccc4c(c3)nc(CN3CC=C(c5cccc(OCc6ccc(C#N)cc6F)n5)CC3)n4C[C@@H]3CCO3)cc12 200

Task item: So what does the record say about EC50 for O=C(Nc1ccc2c(c1)nc(CN1CC=C(c3cccc(OCc4ccc(Cl)cc4F)n3)CC1)n2C[C@@H]1CCO1)c1cc(F)c2[nH]ncc2c1 ?
Reply: 980

* * *

test_target: UniProtKB P43220
test_method_notes: GLP-1R agonist cAMP stimulation assay (HTRF cAMP)
particulars: HEK293 cell line expressing GLP-1 target; HTRF cAMP agonist mode, 30 min at RT
# Lookup of reported pEC50 keyed by entry
Scale note: pEC50 = -log10(concentration in M).

compound	attribute_measured	recorded_result
O=C(Nc1cc(F)c2[nH]ncc2c1)c1ccc2c(c1)nc(CN1CC=C(c3cccc(OCc4ccc(Cl)cc4F)n3)CC1)n2C[C@@H]1CCO1	pEC50	9.19
Nc1ncc2c(ncn2C(=O)c2ccc3c(c2)nc(CN2CCC(c4cccc(OCc5ccc(Cl)cc5F)n4)CC2)n3C[C@@H]2CCO2)n1	pEC50	7.64
C=C(C)c1n[nH]c2ccc(C(=O)Nc3ccc4c(c3)nc(CN3CC=C(c5cccc6c5OC(C)(c5ccc(Cl)cc5F)O6)CC3)n4CC3CCO3)cc12 (stereo not drawn)	pEC50	8.99

Task item: So what does the record say about pEC50 for Cc1n[nH]c2c(Cl)cc(NC(=O)c3ccc4c(c3)nc(CN3CC=C(c5cccc(OCc6ccc(Cl)cc6F)n5)CC3)n4C[C@@H]3CCO3)cc12 ?
Reply: 9.01

Task item: So what does the record say about pEC50 for O=C(Nc1ccc2[nH]c(=O)cnc2c1)c1ccc2c(c1)nc(CN1CCC(c3cccc(OCc4ccc(Cl)cc4F)n3)CC1)n2C[C@@H]1CCO1 ?
Reply: 7.75

Task item: So what does the record say about pEC50 for Cc1n[nH]c2ccc(C(=O)Nc3ccc4nc(CN5CC=C(c6cccc(OCc7ccc(C#N)cc7F)n6)CC5)n(CC5CCO5)c4c3)cc12 (stereo not drawn) ?
Reply: 8.92

* * *

List of IC50 tested on GLP-1R (Homo sapiens).
Field: numeric (nM). Do not append units.

See these solved cases before continuing.
molecule	test_target	IC50, nM
Cc1n[nH]c2c(C)cc(C(=O)Nc3ccc4c(c3)nc(CN3CC=C(c5cccc6c5O[C@@](C)(c5ccc(Cl)cc5F)O6)CC3)n4CC3CCO3)cc12 (stereo partly drawn)	GLP-1R (Homo sapiens)	110
O=C(Nc1ccc2[nH]c(=O)[nH]c2c1)c1ccc2c(c1)nc(CN1CC=C(c3cccc(OCc4ccc(Cl)cc4F)n3)CC1)n2C[C@@H]1CCO1	GLP-1R (Homo sapiens)	1750
Cc1n[nH]c2c(F)cc(C(=O)Nc3ccc4c(c3)nc(CN3CCC(c5cccc6c5OC(C)(c5ccc(Cl)cc5F)O6)CC3)n4CC3CCO3)cc12 (stereo not drawn)	GLP-1R (Homo sapiens)	123

Task item: So what does the record say about IC50 for Cc1n[nH]c2c(F)cc(C(=O)Nc3ccc4c(c3)nc(Cc3cc(F)c(-c5cccc(OCc6ccc(Cl)cc6F)n5)cc3F)n4C[C@@H]3CCO3)cc12 ?
Reply: 28

Task item: So what does the record say about IC50 for O=C(Nc1ccc2c(c1)C1(CC1)C(=O)N2)c1ccc2c(c1)nc(CN1CCC(c3cccc(OCc4ccc(Cl)cn4)n3)CC1)n2C[C@@H]1CCO1 ?
Reply: 1280

Task item: So what does the record say about IC50 for Cc1n[nH]c2c(F)cc(NC(=O)c3ccc4c(c3)nc(CN3CCC(c5cccc(OCc6ccc(Cl)cc6F)n5)CC3)n4C[C@@H]3CCO3)cc12 ?
Reply: 1550

* * *

test_target: GLP-1R (Homo sapiens, UniProt P43220)
Sequence (P43220 24-463): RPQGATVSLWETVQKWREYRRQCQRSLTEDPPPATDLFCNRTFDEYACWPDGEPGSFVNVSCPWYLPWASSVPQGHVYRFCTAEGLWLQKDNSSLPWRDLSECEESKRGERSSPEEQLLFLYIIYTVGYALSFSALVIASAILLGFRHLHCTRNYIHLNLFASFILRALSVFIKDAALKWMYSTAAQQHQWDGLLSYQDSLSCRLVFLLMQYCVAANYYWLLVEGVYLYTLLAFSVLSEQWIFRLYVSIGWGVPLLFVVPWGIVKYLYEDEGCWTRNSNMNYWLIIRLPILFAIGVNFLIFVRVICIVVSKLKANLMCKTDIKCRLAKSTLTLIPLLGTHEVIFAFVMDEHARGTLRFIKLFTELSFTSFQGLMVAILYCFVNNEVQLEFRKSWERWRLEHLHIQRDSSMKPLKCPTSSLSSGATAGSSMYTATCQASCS
test_method_notes: GLP-1R agonist cAMP stimulation assay (HTRF cAMP)
particulars: HEK293 cell line expressing GLP-1 target; HTRF cAMP agonist mode, 30 min at RT
Values of EC50 strictly less than 3 nM map to Condition met, and values of at least 3 nM map to Condition not met.

compound	classification
O=C(NCC(=O)N1C[C@@H](O)C[C@H]1C(=O)O)c1ccc2c(c1)nc(CN1CCC(c3cccc(OCc4ccc(Cl)cc4F)n3)CC1)n2C[C@@H]1CCO1	Condition met

Task item: Lab log: compare recorded EC50 with 3 nM; is it strictly lower for Cc1n[nH]c2cc(F)c(NC(=O)c3ccc4c(c3)nc(CN3CC=C(c5cccc(OCc6ccc(Cl)cc6F)n5)CC3)n4C[C@@H]3CCO3)cc12 ?
Reply: Condition met

Task item: Lab log: compare recorded EC50 with 3 nM; is it strictly lower for COCCn1c(CN2CCC(c3cccc(OCc4ccc(Cl)cc4F)n3)CC2)nc2cc(C(=O)NCc3ccc4[nH]ccc4c3)ccc21 ?
Reply: Condition not met

Task item: Lab log: compare recorded EC50 with 3 nM; is it strictly lower for COCCn1c(CN2CCC(c3cccc(OCc4ccc(Cl)cc4F)n3)CC2)nc2cc(C(=O)NCc3ccc(O)c(O)c3)ccc21 ?
Reply: Condition not met

Task item: Lab log: compare recorded EC50 with 3 nM; is it strictly lower for O=C(Nc1ccc2c(c1)C1(CC1)C(=O)N2)c1ccc2nc(CN3CC=C(c4cccc(OCc5ccc(Cl)cc5F)n4)CC3)n(C[C@@H]3CCO3)c2c1 ?
Reply: Condition not met

Task item: Lab log: compare recorded EC50 with 3 nM; is it strictly lower for Cc1n[nH]c2c(F)cc(NC(=O)c3ccc4c(c3)nc(CN3CC=C(c5cccc6c5O[C@@](C)(c5ccc(C#N)cc5F)O6)CC3)n4CC3CCO3)cc12 (stereo partly drawn) ?
Reply: Condition met

* * *

test_target: GLP-1R (Homo sapiens)
test_method_notes: GLP-1R agonist cAMP stimulation assay (HTRF cAMP)
particulars: HEK293 cell line expressing GLP-1 target; HTRF cAMP agonist mode, 30 min at RT
attribute_measured: pEC50
Scale note: pEC50 = -log10(concentration in M).

See these solved cases before continuing.
compound	recorded_result
CCn1cncc1Cn1c(CN2CC=C(c3cccc4c3OC(C)(c3ccc(Cl)cn3)O4)CC2)nc2cc(NC(=O)c3cc(F)c4[nH]nc(C)c4c3)ccc21 (centres unmarked) [Compound 410]	9.51
O=C(Nc1ccc2c(c1)nc(CN1CC=C(c3cccc(OCc4ccc(Cl)cc4F)n3)CC1)n2C[C@@H]1CCO1)c1cc(F)c2c(c1)C1(CC1)C(=O)N2 [Compound 208]	9.60
O=C(Nc1ccc2[nH]nc(C3CC3)c2c1)c1ccc2c(c1)nc(CN1CC=C(c3cccc(OCc4ccc(Cl)cc4F)n3)CC1)n2C[C@@H]1CCO1 [Compound 162]	8.91

Task item: So what does the record say about pEC50 for Cc1n[nH]c2c(C(F)(F)F)cc(NC(=O)c3ccc4nc(CN5CC=C(c6cccc(OCc7ccc(Cl)cc7F)n6)CC5)n(CC5CCO5)c4c3)cc12 (centres unmarked) [Compound 272] ?
Reply: 8.49

Task item: So what does the record say about pEC50 for COCCn1c(Cc2ccc(-c3cccc(OCc4ccc(C#N)cc4F)n3)cc2)nc2cc(C(=O)NCCc3ccc(C(=O)O)cc3)ccc21 [Compound 12] ?
Reply: 6.91
